Source: ChEMBL document CHEMBL4665627

# System: Candida tropicalis
# experiment_notes: Antifungal activity against Candida tropicalis assessed as inhibition of fungal growth after 24 hrs by CLSI protocol based two fold serial dilution method
# Assay type: functional
For each entry below, report its MIC value.
Give bare numbers, in µM.

Consider the following illustrative entries.
- structure: "CCCN1CCN(c2cc3c(cc2F)c(=O)c(-c2csc(N)n2)cn3CC)CC1"
  readout_label: "MIC"
  unit_of_measure: "µM"
  observed_measurement: 308
- structure: "CCn1cc(-c2csc(N)n2)c(=O)c2cc(F)c(N3CCN(CC(=O)N(C)C)CC3)cc21"
  readout_label: "MIC"
  unit_of_measure: "µM"
  observed_measurement: 70
- structure: "CCOC(=O)CN1CCN(c2cc3c(=O)c(-c4csc(N)n4)cn(CC)c3cc2Cl)CC1"
  readout_label: "MIC"
  unit_of_measure: "µM"
  observed_measurement: 135
- structure: "CCCCCCN1CCN(c2cc3c(cc2F)c(=O)c(-c2csc(N)n2)cn3CC)CC1"
  readout_label: "MIC"
  unit_of_measure: "µM"
  observed_measurement: 560

Now for the compound whose MIC we want.
Sample CCn1cc(-c2csc(N)n2)c(=O)c2cc(F)c(N3CCN(CC#N)CC3)cc21 — what was its MIC?
39

* * *

# Test system: Candida tropicalis
# experiment_notes: Antifungal activity against Candida tropicalis assessed as inhibition of fungal growth after 24 hrs by CLSI protocol based two fold serial dilution method
# Assay type: functional
readout_label: MIC (µM)
Give bare numbers, in µM.

Each compound below has a recorded value; state its MIC.
1. CCn1cc(-c2csc(N)n2)c(=O)c2cc(F)c(N3CCN(CC(=O)N(C(C)C)C(C)C)CC3)cc21
2. CCN1CCN(c2cc3c(cc2F)c(=O)c(-c2csc(N)n2)cn3CC)CC1
3. CCn1cc(-c2csc(N)n2)c(=O)c2cc(F)c(N3CCN(C(C)=O)CC3)cc21
4. CCCCCCCCCCCCN1CCN(c2cc3c(cc2F)c(=O)c(-c2csc(N)n2)cn3CC)CC1
5. OC(Cn1cncn1)(Cn1cncn1)c1ccc(F)cc1F
6. CCCCCCCCCCN1CCN(c2cc3c(cc2F)c(=O)c(-c2csc(N)n2)cn3CC)CC1
7. CCn1cc(-c2csc(N)n2)c(=O)c2cc(N3CCNCC3)c(Cl)cc21

498
40
77
236
26
499
329

* * *

# Tested on: Saccharomyces cerevisiae
# experiment_notes: Inhibition of Saccharomyces cerevisiae CGMCC 2.145 chitin synthase at 300 ug/ml using GlcNAc and UDP-GlcNAc as substrate incubated for 60 mins by microplate reader analysis relative to control
# condition: dose 300.0 µg/ml
readout_label: inhibition
Please state the value followed by its unit.

Consider the following illustrative entries.
- structure: "CCCCN1CCN(c2cc3c(cc2F)c(=O)c(-c2csc(N)n2)cn3CC)CC1"
  inhibition: "41.4%"
- structure: "CCn1cc(-c2csc(N)n2)c(=O)c2cc(F)c(N3CCN(CC#N)CC3)cc21"
  inhibition: "64.6%"
- structure: "CCn1cc(-c2csc(N)n2)c(=O)c2cc(F)c(N3CCN(C(C)=O)CC3)cc21"
  inhibition: "71.1%"

Each molecule below has a recorded value; state its inhibition.
1. CCn1cc(-c2csc(N)n2)c(=O)c2cc(F)c(N3CCN(CCO)CC3)cc21
2. CCN(CC)C(=O)CN1CCN(c2cc3c(cc2F)c(=O)c(-c2csc(N)n2)cn3CC)CC1
3. NC(=O)OC[C@H](O)[C@@H](O)[C@H](N)C(=O)N[C@H](C(=O)O)[C@H]1O[C@@H](n2cc(CO)c(=O)[nH]c2=O)[C@H](O)[C@@H]1O
4. CCn1cc(-c2csc(N)n2)c(=O)c2cc(F)c(N3CCN(Cc4ccc(Cl)cc4)CC3)cc21

["48.3%", "49.1%", "81%", "56.2%"]

* * *

# System: Acinetobacter baumannii
# experiment_notes: Antibacterial activity against Acinetobacter baumannii assessed as inhibition of bacterial growth after 24 hrs by CLSI protocol based two fold serial dilution method
# Format: functional
With a cut-off of 200 µM, any MIC strictly below it is called Met; any MIC meeting it or above is called Not met.

The following molecules have reported results that may help.
- molecule: "CCN1CCN(c2cc3c(cc2F)c(=O)c(-c2csc(N)n2)cn3CC)CC1"
  category: "Not met"
- molecule: "CCOC(=O)CN1CCN(c2cc3c(cc2F)c(=O)c(-c2csc(N)n2)cn3CC)CC1"
  category: "Met"
- molecule: "CCn1cc(-c2csc(N)n2)c(=O)c2cc(F)c(N3CCNCC3)cc21"
  category: "Not met"
- molecule: "CCn1cc(-c2csc(N)n2)c(=O)c2cc(F)c(N3CCN(Cc4ccc(Cl)c(Cl)c4)CC3)cc21"
  category: "Not met"
- molecule: "CCn1cc(-c2csc(N)n2)c(=O)c2cc(F)c(N3CCN(CC#N)CC3)cc21"
  category: "Met"

Okay, now this molecule:
Does the reported MIC of CCn1cc(C(=O)O)c(=O)c2cc(F)c(N3CCNCC3)cc21 stay below 200 µM?
Met

* * *

# assay_system: DNA gyrase (Escherichia coli, UniProt P0AES4+P0AES6)
# experiment_notes: Inhibition of Escherichia coli DNA gyrase holoenzyme assessed as reduction in pBR322 DNA supercoiling using pBR322 plasmid DNA as substrate incubated for 90 mins in presence of ATP by ethidium bromide staining based agarose gel electrophoresis analysis
readout_label: IC50 (µM)
One number for each entry, in µM.

# returns recorded IC50 (system: DNA gyrase (Escherichia coli, UniProt P0AES4+P0AES6)) for CCn1cc(-c2csc(N)n2)c(=O)c2cc(F)c(N3CCN(CC#N)CC3)cc21
16.7

* * *

# System: Acinetobacter baumannii
# experiment_notes: Antibacterial activity against Acinetobacter baumannii assessed as inhibition of bacterial growth after 24 hrs by CLSI protocol based two fold serial dilution method
# Type: functional
For each entry below, report its log10 of MIC value.
Kindly note that the scale is log10 and the underlying MIC is in µM.

Consider the following illustrative entries.
- structure: "CCCCCCCCCCCCN1CCN(c2cc3c(cc2F)c(=O)c(-c2csc(N)n2)cn3CC)CC1"
  readout_label: "log10 of MIC"
  observed_measurement: 2.67
- structure: "CCn1cc(-c2csc(N)n2)c(=O)c2cc(F)c(N3CCN(Cc4ccc(F)cc4)CC3)cc21"
  readout_label: "log10 of MIC"
  observed_measurement: 2.42

Each molecule below has a recorded value; state its log10 of MIC.
1. CCCCCCN1CCN(c2cc3c(cc2F)c(=O)c(-c2csc(N)n2)cn3CC)CC1
2. CCn1cc(-c2csc(N)n2)c(=O)c2cc(N3CCN(CC(C)=O)CC3)c(Cl)cc21
3. C#CCN1CCN(c2cc3c(cc2F)c(=O)c(-c2csc(N)n2)cn3CC)CC1

1.85
2.46
1.28

Each molecule below has a recorded value; state its log10 of MIC.
1. CCn1cc(-c2csc(N)n2)c(=O)c2cc(F)c(N3CCN(Cc4ccc(Cl)cc4)CC3)cc21
2. CCn1cc(-c2csc(N)n2)c(=O)c2cc(F)c(N3CCN(C(C)=O)CC3)cc21

1: 1.51; 2: 1.59

Each molecule below has a recorded value; state its log10 of MIC.
1. CCn1cc(-c2csc(N)n2)c(=O)c2cc(F)c(N3CCN(CC(=O)N(C)C)CC3)cc21
2. CCn1cc(-c2csc(N)n2)c(=O)c2cc(F)c(N3CCN(C=O)CC3)cc21

[2.15, 2.50]

* * *

# System: Acinetobacter baumannii
# experiment_notes: Antibacterial activity against Acinetobacter baumannii assessed as inhibition of bacterial growth after 24 hrs by CLSI protocol based two fold serial dilution method
# Format: functional
With a cut-off of 200 µM, any MIC strictly below it is called condition met; any MIC meeting it or above is called condition not met.

- structure: "C=CCN1CCN(c2cc3c(cc2F)c(=O)c(-c2csc(N)n2)cn3CC)CC1"
  category: "condition met"

Does the reported MIC of CCN(CC)C(=O)CN1CCN(c2cc3c(cc2F)c(=O)c(-c2csc(N)n2)cn3CC)CC1 stay below 200 µM?
condition met

Does the reported MIC of CCCCCCCCCCN1CCN(c2cc3c(cc2F)c(=O)c(-c2csc(N)n2)cn3CC)CC1 stay below 200 µM?
condition not met

Does the reported MIC of CCn1cc(-c2csc(N)n2)c(=O)c2cc(F)c(N3CCN(C)CC3)cc21 stay below 200 µM?
condition not met

Does the reported MIC of CCn1cc(-c2csc(N)n2)c(=O)c2cc(F)c(N3CCN(CCO)CC3)cc21 stay below 200 µM?
condition met

* * *

# System: Enterococcus faecalis
# experiment_notes: Antibacterial activity against Enterococcus faecalis assessed as inhibition of bacterial growth after 24 hrs by CLSI protocol based two fold serial dilution method
# Assay type: functional
With a cut-off of 200 µM, any MIC strictly below it is called T; any MIC meeting it or above is called F.

- structure: "CCN1CCN(c2cc3c(cc2F)c(=O)c(-c2csc(N)n2)cn3CC)CC1"
  category: "F"
- structure: "CCn1cc(-c2csc(N)n2)c(=O)c2cc(N3CCNCC3)c(Cl)cc21"
  category: "F"
- structure: "CCn1cc(C(=O)O)c(=O)c2cc(F)c(N3CCNCC3)cc21"
  category: "T"
- structure: "CCn1cc(-c2csc(N)n2)c(=O)c2cc(F)c(N3CCN(Cc4ccc(Cl)c(Cl)c4)CC3)cc21"
  category: "T"

Does the reported MIC of C=CCN1CCN(c2cc3c(cc2F)c(=O)c(-c2csc(N)n2)cn3CC)CC1 stay below 200 µM?
T

Does the reported MIC of CCCCCCCCCCCCN1CCN(c2cc3c(cc2F)c(=O)c(-c2csc(N)n2)cn3CC)CC1 stay below 200 µM?
F

Does the reported MIC of CCn1cc(-c2csc(N)n2)c(=O)c2cc(F)c(N3CCN(C)CC3)cc21 stay below 200 µM?
F

Does the reported MIC of CCCCCCCCN1CCN(c2cc3c(cc2F)c(=O)c(-c2csc(N)n2)cn3CC)CC1 stay below 200 µM?
F

Does the reported MIC of CCn1cc(-c2csc(N)n2)c(=O)c2cc(F)c(N3CCN(Cc4ccc(F)cc4)CC3)cc21 stay below 200 µM?
T

Does the reported MIC of CCn1cc(-c2csc(N)n2)c(=O)c2cc(F)c(N3CCN(Cc4ccc(Cl)cc4)CC3)cc21 stay below 200 µM?
T

Does the reported MIC of CCn1cc(-c2csc(N)n2)c(=O)c2cc(F)c(N3CCN(C=O)CC3)cc21 stay below 200 µM?
F

Does the reported MIC of CCn1cc(-c2csc(N)n2)c(=O)c2cc(F)c(N3CCN(C(C)=O)CC3)cc21 stay below 200 µM?
T
